system: ATP; test: switch fluorescence ratio, 500 uM ATP over buffer (Cy3 cluster intensity, sum of 5 cycles each) (fold (ratio)); higher = stronger signal-on switching upon ATP binding; sequences stand for … in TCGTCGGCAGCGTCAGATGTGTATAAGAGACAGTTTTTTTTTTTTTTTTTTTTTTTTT…TC; settings: aptamer strand: ATP DNA aptamer (quencher-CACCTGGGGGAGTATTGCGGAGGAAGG + anchor), 100 nM annealed; ATP concentration: 500 uM;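 further: ATP exposure 15 min at 22 °C before imaging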
Reported Endpoint: switch fluorescence ratio

Solved entries (count: 3):
TTTAGGTGTA :: 0.985
CGTTATGGGA :: 0.976
ACTCGGGGTT :: 0.998

Next, consider the following sequence.
Reported switch fluorescence ratio of GGTGCAAGTT : 1.02
